Listing of entries alongside the reported EC50.
test.system: monkey MSLN full-length protein expressed on HEK293T cells (HEK293T-monkey MSLN) (monkey)
method.notes: FACS on HEK293T-monkey MSLN cells
Give the quantity in nM, number only.

Past entries and their recorded results:
| binder | unit.spec | EC50 |
| --- | --- | --- |
| S009-F8-13.8 (antibody, human IgG1, kappa, V domains shown) VH: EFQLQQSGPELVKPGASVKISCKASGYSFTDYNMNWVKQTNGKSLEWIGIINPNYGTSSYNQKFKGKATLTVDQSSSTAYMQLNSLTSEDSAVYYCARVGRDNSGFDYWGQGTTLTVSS VL: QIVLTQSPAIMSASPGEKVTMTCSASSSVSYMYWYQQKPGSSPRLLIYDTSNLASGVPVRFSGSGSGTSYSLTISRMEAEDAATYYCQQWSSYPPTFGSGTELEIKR | nM | 0.15 |
| S009-F8-4.5 (antibody, human IgG1, kappa, V domains shown) VH: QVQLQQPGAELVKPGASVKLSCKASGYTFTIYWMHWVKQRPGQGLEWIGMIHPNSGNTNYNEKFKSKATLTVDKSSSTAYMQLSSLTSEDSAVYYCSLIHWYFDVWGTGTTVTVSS VL: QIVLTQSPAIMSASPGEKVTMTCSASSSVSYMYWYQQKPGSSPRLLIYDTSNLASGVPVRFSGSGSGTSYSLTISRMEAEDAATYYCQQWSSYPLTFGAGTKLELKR | nM | 0.64 |
| S009-F8-27.1 (antibody, human IgG1, kappa, V domains shown) VH: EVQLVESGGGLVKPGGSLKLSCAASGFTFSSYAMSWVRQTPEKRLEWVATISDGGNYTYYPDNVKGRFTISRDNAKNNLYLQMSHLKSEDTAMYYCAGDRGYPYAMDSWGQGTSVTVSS VL: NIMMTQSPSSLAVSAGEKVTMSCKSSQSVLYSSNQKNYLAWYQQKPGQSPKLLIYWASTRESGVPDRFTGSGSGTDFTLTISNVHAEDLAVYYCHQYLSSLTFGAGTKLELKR | nM | 2.05 |
| S009-F8-24.14 (antibody, human IgG1, kappa, V domains shown) VH: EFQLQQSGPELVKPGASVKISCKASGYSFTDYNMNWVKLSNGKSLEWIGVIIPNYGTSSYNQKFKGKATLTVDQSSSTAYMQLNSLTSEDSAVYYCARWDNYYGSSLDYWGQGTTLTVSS VL: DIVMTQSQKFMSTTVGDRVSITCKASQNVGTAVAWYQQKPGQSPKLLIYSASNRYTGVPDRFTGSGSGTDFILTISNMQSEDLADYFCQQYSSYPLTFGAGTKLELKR | nM | 0.52 |

Next item in the queue.
Sample S009-F8-5.15 (antibody, human IgG1, kappa, V domains shown) VH: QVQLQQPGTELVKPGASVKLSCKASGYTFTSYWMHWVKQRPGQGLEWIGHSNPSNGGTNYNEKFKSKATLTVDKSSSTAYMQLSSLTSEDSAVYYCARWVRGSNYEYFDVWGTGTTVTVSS VL: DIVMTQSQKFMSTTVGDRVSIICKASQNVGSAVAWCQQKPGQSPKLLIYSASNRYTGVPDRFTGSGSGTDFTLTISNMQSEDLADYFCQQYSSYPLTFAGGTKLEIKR — what was its EC50?
0.18
